system: MCF7; assay: Cytotoxicity against human MCF7 cells after 3 days by SRB assay; format: functional; conditions: MCF7, 72 h, read-out: ED50 (the source's name)
Listed molecules paired with reported EC50
Provide only the numeric value, understood in µg/mL.

Example cases with answers are listed next.
CC1=C(O)C(=O)C=C2C1=CC=C1[C@@]2(C)CC[C@@]2(C)[C@@H]3C[C@](C)(C(=O)O)CC[C@]3(C)CC[C@]12C: 0.21
COC(=O)[C@]1(C)CC[C@]2(C)CC[C@]3(C)C4=CC(=O)c5c(cc(O)c(O)c5C)[C@]4(C)CC[C@@]3(C)[C@@H]2C1: 12.8

We now examine a further molecule.
Give its EC50 value. Item: CC1(C)CC[C@]2(C)CC[C@]3(C)C(=CC[C@@H]4[C@@]5(C)CC[C@H](O)C(C)(C)C5C(=O)C[C@]43C)[C@H]2C1 (some centres undefined)
14.6

----------
tested on: HCT-8; test: Cytotoxicity against human HCT8 cells after 3 days by SRB assay; type: functional; details: HCT-8, 72 h, read-out: ED50 (the source's name)
reported.property: EC50 (µg/mL)
Provide only the numeric value, understood in µg/mL.

Example cases with answers are listed next.
CC1(C)CC[C@]2(C)CC[C@]3(C)C(=CC[C@@H]4[C@@]5(C)CC[C@H](O)C(C)(C)C5C(=O)C[C@]43C)[C@H]2C1 (stereo not given in full): 13.7
CC1=C(O)C(=O)C=C2C1=CC=C1[C@@]2(C)CC[C@@]2(C)[C@@H]3C[C@](C)(C(=O)O)CC[C@]3(C)CC[C@]12C: 0.23

We now examine a further compound.
Give its EC50 value. Item: CC(=O)O[C@H]1C(=O)[C@@]2(C)[C@H]([C@H](OC(=O)c3ccccc3)[C@]3(O)C[C@H](OC(=O)[C@H](O)[C@@H](NC(=O)c4ccccc4)c4ccccc4)C(C)=C1C3(C)C)[C@]1(OC(C)=O)CO[C@@H]1C[C@@H]2O
0.011

----------
experiment: Cytotoxicity against human KBVIN cells after 3 days by SRB assay; type: functional; settings: 72 h, read-out: ED50 (the source's name)
reported.property: EC50 (µg/mL)
Provide only the numeric value, understood in µg/mL.

Give its EC50 value. Item: COC(=O)[C@]1(C)CC[C@]2(C)CC[C@]3(C)C4=CC=C5C(=CC(=O)C(O)=C5C)[C@]4(C)CC[C@@]3(C)[C@@H]2C1 [PRISTIMERIN]
0.29

What about CC1=C(O)C(=O)C=C2C1=CC=C1[C@@]2(C)CC[C@@]2(C)[C@@H]3C[C@](C)(C(=O)O)CC[C@]3(C)CC[C@]12C [CELASTROL] ?
0.34

----------
Listed molecules paired with reported EC50
system: 1A9/ptx-10; assay: Cytotoxicity against human 1A9/PTX10 cells after 6 days by SRB assay; assay type: functional; settings: 1A9/ptx-10, 144 h, read-out: ED50 (the source's name)
Provide only the numeric value, understood in µg/mL.

CC[C@H](CC[C@@H](C)[C@H]1CC[C@H]2[C@@H]3CC=C4C[C@@H](O)CC[C@]4(C)[C@H]3CC[C@]12C)C(C)C: 9.5

We now examine a further molecule.
Give its EC50 value. Item: CC1(C)CC[C@]2(C)CC[C@]3(C)C(=CC[C@@H]4[C@@]5(C)CC[C@H](O)C(C)(C)C5C(=O)C[C@]43C)[C@H]2C1 (stereo not given in full)
11.2
